Source: PubChem BioAssay (NCI)

# growth per entry
Test system: HOP-62 NSCLC
Assay remarks: NCI-60 one-dose screen, 48 h (100 = growth as untreated, 0 = no growth, -100 = all killed)
Settings: 10 µM unless noted
About 83,000 compounds went through this panel and 20% of them were active in at least one assay; those are over-represented in the sample as a whole.
Write the value in % as a bare number.

>>> value("COc1ccc(/C=C(\\C#N)n2nnc3cc(Cl)ccc32)cc1")
40.8
>>> value("CCOc1nc(-c2ccccc2)cc2c(O)c(C(=O)N/N=C/c3ccccc3)[nH]c(=O)c12")
115

Now take the following compound into account.
Form field: reported growth of COc1ccc(C(O)c2cc3c(N)c(C(=O)Nc4cccc(Br)c4)sc3nc2C)cc1 (stereo not drawn) 24.3

----------
System: IGROV1 ovarian
Assay remarks: NCI-60 one-dose screen, 48 h (100 = growth as untreated, 0 = no growth, -100 = all killed)
Settings: 10 µM unless noted
This is part of a sample that, as a whole, favours compounds with a hit. Of some 83,000 tested, about 20% had one in any assay.
Reported growth maps to class as: bucket 1: < 40%; bucket 2: ≥ 40% and < 80%; bucket 3: ≥ 80%

Field: class (growth) — entry: O=C(Nc1ccc(OS(=O)(=O)c2ccc(F)cc2)cc1)C1CCCCCC1 bucket 3

Assign a category based on measured growth for O=C(Nc1ccc(Oc2cccc(F)c2)c(Cl)c1)c1cccnc1 and give only the class name. bucket 2

Lab note: sort COc1ccc(\C=N/N=C(N)/C(N)=N\N=C/c2ccc(OC)cc2)cc1 into the matching growth band. bucket 3

----------
Tested on: HCT-116 colon
Assay remarks: NCI-60 one-dose screen, 48 h
Settings: 10 µM unless noted
This is part of a sample that, as a whole, favours compounds with a hit. Of some 83,000 tested, about 20% had one in any assay. Active and inactive are the calls of the source. The calls were made as follows: active = growth percent below 10; inactive = the rest.
Pick one and only one: active, inactive

Tell me the assay call for Cc1cc(=O)oc2cc(OCc3nn4c(Nc5nc6ccccc6s5)c(-c5ccccc5)nc4s3)ccc12 please. inactive

----------
Tested on: SW-620 colon
Assay remarks: NCI-60 one-dose screen, 48 h (100 = growth as untreated, 0 = no growth, -100 = all killed)
Settings: 10 µM unless noted
Compounds without any hit were thinned out: in the full panel of roughly 83,000, 20% have a hit.
Measured metric: growth (%)
Numeric only. Scale: %

>>> value("O=C(/C=C/c1cccc(Cl)c1)c1cccc(OCCCOc2cccc(C(=O)/C=C/c3cccc(Cl)c3)c2)c1")
90.7
>>> value("Cc1ccc(-c2nc(N3CCCNCC3)c3oc(-c4ccc(C)cc4)nc3n2)cc1")
-49.7
>>> value("COc1ccc2c(c1OC)CO[C@@H]2[C@H]1c2c(cc3c(c2OC)OCO3)CCN1S(=O)(=O)c1cn(C)cn1")
25.4
>>> value("CCC(=C(c1ccc(OCCN2CCCCC2)cc1)c1ccc(OCCN2CCCCC2)cc1)c1ccc(Cl)cc1")
-84.1
>>> value("COc1ccccc1CNc1c2ccccc2nc2ccccc12")
22.1
>>> value("CCN(CC)Cc1cc(C=C2C(=O)NC(=S)NC2=O)cc(OC)c1O")
107
>>> value("O=C(Nn1c2c(sc1=NC1CC1)C(=O)c1ccccc1C2=O)c1cc2ccc1CCc1ccc(cc1)CC2")
18.3
>>> value("Cc1sc2nc(NCCc3c[nH]c4ccc(Cl)cc34)[nH]c(=O)c2c1C")
9.09
>>> value("CCOC(=O)C(=O)C(C(=O)OCC)c1ccccc1 (stereo unspecified)")
103
>>> value("C=C(C)[C@@H]1CC[C@]2(C(=O)O)CC[C@]3(C)[C@H](CC[C@@H]4[C@@]5(C)CCC(NC(=O)c6cccc(OC(C)=O)c6OC(C)=O)C(C)(C)[C@@H]5CC[C@]43C)[C@@H]12 (stereo partly specified)")
2.79

Now for another entry.
Reported growth for SW-620 colon, given COc1ccc(C(O)c2cc3c(N)c(C(=O)Nc4cccc(Br)c4)sc3nc2C)cc1 (stereo unspecified) ? 23.7

----------
Tested on: OVCAR-8 ovarian
Assay remarks: NCI-60 one-dose screen, 48 h (100 = growth as untreated, 0 = no growth, -100 = all killed)
Settings: 10 µM unless noted
Method: Growth inhibition of the OVCAR-8 human tumor cell line is measured as a screen for anti-cancer activity. Cells are grown in 96 well plates and exposed to the test compound for 48 hours. Compounds are tested at a single concentration, which is 10^-5 M for most compounds. The reported endpoint is percent growth (GI% or GIPRCNT), where numbers from 0 - 100% represent growth inhibition, and numbers from -100% - 0 represent cell death. For example, a value of 40 represents 60% growth inhibition. […]
The panel holds about 83,000 compounds, 20% with a hit somewhere; the sample as a whole holds those more often.
Lab note: anything with growth below 40% is marked Fulfilled; values at 40% or higher are marked Not fulfilled.

>>> group("COc1ccc(Nc2ncc(Br)c(NCCCNC(=O)C3CCCC3)n2)cc1")
"Fulfilled"
>>> group("COC(=O)c1nc(-c2ccccc2)oc1S(=O)(=O)Cc1ccccc1")
"Not fulfilled"
>>> group("COc1ccc(C(=O)/C=C/c2c(C(F)(F)F)nc3ccccn23)cc1OC")
"Fulfilled"
>>> group("CC1OC(n2c3ccccc3c3c4c(c5c6ccccc6[nH]c5c32)C(=O)N(CCN2CCCC2)C4=O)CC(O)C1O (stereo not drawn)")
"Not fulfilled"
>>> group("CC(C)(C)CC(C)(C)NC(=O)Nc1ncccc1OCc1ccccc1")
"Not fulfilled"
>>> group("O=C(Nc1nc(-c2ccc(Cl)cc2)nc2c1sc(=S)n2-c1ccccc1)C(F)(F)F")
"Fulfilled"
>>> group("CS(=O)(=O)c1ccc(-c2cnn3ccc(-c4cccc(S(=O)(=O)C5CC5)c4)nc23)cc1")
"Not fulfilled"
>>> group("COc1ccc(C(=O)N2c3ccccc3Sc3ccccc32)c(OC)c1")
"Fulfilled"
>>> group("COc1ccc(/C=C/C(=O)c2cc3c(N)c(C(=O)Nc4cccc5ccccc45)sc3nc2C)cc1")
"Not fulfilled"
>>> group("COC1=CC(c2ccc[nH]2)=N/C1=C\\c1[nH]c(C)c(CC(=O)OCc2ccccc2)c1CCC(=O)OCc1ccccc1")
"Fulfilled"

Is the reported growth for C/C(=N\O)c1ccc(Cl)cc1 strictly below 40%? Not fulfilled

Determine if COc1ccc(\C=N/N=C(N)/C(N)=N\N=C/c2ccc(OC)cc2)cc1 shows growth strictly lower than 40%. Not fulfilled

Dear reviewer, please state whether Cc1ccc(C[P+](c2ccccc2)(c2ccccc2)c2ccccc2)cc1 has growth strictly beneath 40%. Fulfilled

I'd appreciate it if you could check whether COc1c(B(O)O)cccc1-c1nc2c(F)cc3[nH]ncc3c2c2c1CCCC2 has growth smaller than 40%. Fulfilled

Is 40% strictly greater than the molecule's reported growth? molecule: Cc1ccc2c(n1)C(=O)C(Br)=C(C1CCCC1)C2=O Not fulfilled

growth under 40%? Item: Cc1sc2nc(NCCc3c[nH]c4ccc(Cl)cc34)[nH]c(=O)c2c1C Fulfilled

Could you please tell me whether growth recorded for CCCC/C=C/[C@@H]1C[C@H]1CCO is less than 40%? Not fulfilled

----------
Test system: ACHN renal
Assay remarks: NCI-60 one-dose screen, 48 h (100 = growth as untreated, 0 = no growth, -100 = all killed)
Settings: 10 µM unless noted
The panel holds about 83,000 compounds, 20% with a hit somewhere; the sample as a whole holds those more often.
# label = Yes if growth >= 50% else No

Consider the following illustrative entries.
>>> group("CCCOC(=O)Nc1nc2ccc(SCC(C)C)cc2s1")
"Yes"
>>> group("Nc1nc2ccccc2c2c1S(=O)(=O)c1ccc(Cl)cc1C2=O")
"No"
>>> group("CCOC(=O)NC(C)C")
"Yes"
>>> group("CCN(CC)CCCCCNc1cc(OC(=O)c2ccc(Cl)cc2)cc2cccnc12")
"Yes"
>>> group("O=C(Nc1nc2cc(C(=O)N3CCN(C(c4ccccc4)c4ccccc4)CC3)ccc2o1)c1ccc(NC2CCCCC2)c([N+](=O)[O-])c1")
"No"
>>> group("CCOC(=O)C(=O)C(C(=O)OCC)c1ccccc1 (centres undefined)")
"Yes"

Check this molecule for growth at or above 50%: COc1cc(-c2nccc3[nH]c(-c4ccc5cc[nH]c5c4)nc23)cc(OC)c1OC No

Is growth at least 50%? Consider N=C(N)c1ccc(-c2ccc(-c3ccc(Cl)c(Cl)c3)s2)nc1 No

Item O=C(Nc1ccc(OS(=O)(=O)c2ccc(F)cc2)cc1)C1CCCCCC1 with growth of 50% or above? Yes

Reported growth reaches at least 50% for COc1ccc(-c2ccc(-c3ccc(C(=N)N)cc3)s2)cc1Cl ? No

For this molecule, is measured growth 50% or higher? O=S(=O)(NCCNc1nccc(-c2c(-c3ccc(F)c(O)c3)nc3sccn23)n1)c1ccc(O)cc1 No
